SYSTEM_UNDER_TEST: MR (Homo sapiens, UniProt P08235)
Construct: expressed in transfected cells; host or cells: Huh7 human liver cells (ATCC), transient transfection with FuGENE 6
Sequence (P08235 726-964 limits assumed): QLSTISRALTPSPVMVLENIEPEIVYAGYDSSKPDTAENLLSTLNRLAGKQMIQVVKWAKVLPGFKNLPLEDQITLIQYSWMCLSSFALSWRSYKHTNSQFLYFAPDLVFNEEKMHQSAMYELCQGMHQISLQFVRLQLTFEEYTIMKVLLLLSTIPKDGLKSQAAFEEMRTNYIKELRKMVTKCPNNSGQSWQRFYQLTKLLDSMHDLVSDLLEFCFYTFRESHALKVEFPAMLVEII
EXPERIMENT_SUMMARY: Cell-based reporter assay (Gal4-MR-LBD luciferase, antagonist mode)
Fulfilled if IC50 is below 300 nM. Not fulfilled if not; exact matches included in Not fulfilled.

// known answers, use as guide
>>> class_label("O=C1COc2ccc(N3C[C@@H](C4CC4)OC[C@H]3c3ccccc3)nc2N1")
"Not fulfilled"
>>> class_label("C[C@@H]1CN(c2ncc3c(n2)NC(=O)CO3)[C@H](c2ccccc2)CO1")
"Fulfilled"

Incoming: Dear colleague, could you confirm whether IC50 of C[C@@H]1CN(c2cnc3c(c2)NC(=O)CO3)[C@H](c2ccccc2)CO1 falls below 300 nM? Thanks.
Outgoing: Not fulfilled

====

Recorded pIC50 by entry
SYSTEM_UNDER_TEST: MR (Homo sapiens)
Construct: expressed in transfected cells; host or cells: Huh7 human liver cells (ATCC), transient transfection with FuGENE 6
EXPERIMENT_SUMMARY: Cell-based reporter assay (Gal4-MR-LBD luciferase, antagonist mode)
Just so you know, pIC50 here is -log10 of the concentration in molar units; reply with that number alone.

Below are worked cases with known answers.
>>> assay_value("Cc1ccc(C2(C)CN(c3ccc4c(c3)NC(=O)CO4)CCO2)cc1 (stereo not shown) [Example 74]")
5.47
>>> assay_value("C[C@H]1CN(c2ncc3c(n2)NC(=O)CO3)[C@@H](c2ccccc2F)CO1 (racemic) [Example 34]")
6.84
>>> assay_value("N#CC[C@@H]1CN(c2ccc3c(n2)NC(=O)CO3)[C@H](c2ccccc2)CO1 [Example 40]")
7.01

// field: pIC50; key: C[C@H]1CN(c2cc3c(cn2)OCC(=O)N3)[C@@H](c2ccccc2F)CO1 (racemic) [Example 32] ; value = 6.95

====

SYSTEM_UNDER_TEST: MR (Homo sapiens)
Construct: expressed in transfected cells; host or cells: Huh7 human liver cells (ATCC), transient transfection with FuGENE 6
EXPERIMENT_SUMMARY: Cell-based reporter assay (Gal4-MR-LBD luciferase, antagonist mode)
MEASUREMENT_NAME: IC50 (µM)
Please respond with the number in µM and leave the unit unwritten.

Below are worked cases with known answers.
>>> assay_value("C[C@@H]1CN(c2ccc3c(c2)NC(=O)CS3)[C@H](c2ccccc2)CO1 [Example 4]")
0.306
>>> assay_value("C[C@@H]1CN(c2ncc3c(n2)NC(=O)CO3)[C@H](c2ccccc2F)CO1 (single isomer, unassigned) [Example 35]")
0.104
>>> assay_value("C[C@@H]1CN(c2ccc3c(n2)NC(=O)CO3)[C@H](C)CO1 [Example 71]")
1.93
>>> assay_value("C[C@@H]1CN(c2ccc3c(n2)NC(=O)CO3)[C@H](c2ccc(F)cc2F)CO1 [Example 52]")
0.278

// field: IC50; key: C[C@H]1CN(c2cc3c(cn2)OCC(=O)N3)[C@@H](c2ccccc2Cl)CO1 (racemic) [Example 65] ; value = 0.631

// field: IC50; key: C[C@@H]1CN(c2ccc3c(n2)NC(=O)CO3)C[C@H](C)O1 [Example 25] ; value = 0.798

// field: IC50; key: O=C1COc2ccc(N3CCOC4(CCCc5ccccc54)C3)cc2N1 (stereo not shown) [Example 72] ; value = 8.75

// field: IC50; key: C[C@H]1CN(c2ccc3c(n2)NC(=O)CO3)[C@@H](c2ccccc2F)CO1 (racemic) [Example 7] ; value = 0.0636

// field: IC50; key: Cc1cc(N2C[C@@H](C)OC[C@H]2c2ccccc2)nc2c1OCC(=O)N2 [Example 5] ; value = 0.174

// field: IC50; key: O=C1COc2ccc(N3CCOC4(CCOc5ccccc54)C3)cc2N1 (stereo not shown) [Example 73] ; value = 6.34

// field: IC50; key: C[C@@H]1CN(c2ccc3c(n2)NC(=O)C(F)(F)O3)[C@H](c2ccccc2)CO1 [Example 30] ; value = 9.56

// field: IC50; key: CC1(C)OCCN(c2ccc3c(n2)NC(=O)CO3)C1c1ccccc1 (stereo not shown) [Example 53] ; value = 7.45
